# assayTarget: T1, APBA1_1, Q02410
# T1 sequence (Q02410 651-752, limits assumed, looked up): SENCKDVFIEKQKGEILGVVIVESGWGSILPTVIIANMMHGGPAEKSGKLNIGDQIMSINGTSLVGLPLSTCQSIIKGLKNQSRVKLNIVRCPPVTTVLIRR
# assayOverview: holdup assay
# Set-up: key: below the threshold = too weak to quantify, mostly under pKd 3.1 to 4
# reportedConditions: plain residues with an end cap or a label only (N-terminal biotin on a linker: ado-ado)

binder: NKSEPFLTWL [WWTR1, Q9GZV5]
pKd: 4.11
//
binder: THHRKIHTRV [ZNF599, Q96NL3]
pKd: below the threshold
//
binder: KLQNPNQSVV [TYRP1, P17643]
pKd: below the threshold
//
binder: GSQSQVETEA [FKBP4, Q02790]
pKd: below the threshold

Each recorded value in this set is attributed to paper PMC9482650.
